Biological target: T1, human collagen type I, acid soluble, extracted from placenta (Sigma C7774) (human, UniProt P02452 162-1218; P08123 80-1119)
T1 construct: tissue extract, gelled and dried in wells; also called dried human collagen; h-Collagen
T1 sequence (P02452 162-1218 limits assumed, chain 1 of 2): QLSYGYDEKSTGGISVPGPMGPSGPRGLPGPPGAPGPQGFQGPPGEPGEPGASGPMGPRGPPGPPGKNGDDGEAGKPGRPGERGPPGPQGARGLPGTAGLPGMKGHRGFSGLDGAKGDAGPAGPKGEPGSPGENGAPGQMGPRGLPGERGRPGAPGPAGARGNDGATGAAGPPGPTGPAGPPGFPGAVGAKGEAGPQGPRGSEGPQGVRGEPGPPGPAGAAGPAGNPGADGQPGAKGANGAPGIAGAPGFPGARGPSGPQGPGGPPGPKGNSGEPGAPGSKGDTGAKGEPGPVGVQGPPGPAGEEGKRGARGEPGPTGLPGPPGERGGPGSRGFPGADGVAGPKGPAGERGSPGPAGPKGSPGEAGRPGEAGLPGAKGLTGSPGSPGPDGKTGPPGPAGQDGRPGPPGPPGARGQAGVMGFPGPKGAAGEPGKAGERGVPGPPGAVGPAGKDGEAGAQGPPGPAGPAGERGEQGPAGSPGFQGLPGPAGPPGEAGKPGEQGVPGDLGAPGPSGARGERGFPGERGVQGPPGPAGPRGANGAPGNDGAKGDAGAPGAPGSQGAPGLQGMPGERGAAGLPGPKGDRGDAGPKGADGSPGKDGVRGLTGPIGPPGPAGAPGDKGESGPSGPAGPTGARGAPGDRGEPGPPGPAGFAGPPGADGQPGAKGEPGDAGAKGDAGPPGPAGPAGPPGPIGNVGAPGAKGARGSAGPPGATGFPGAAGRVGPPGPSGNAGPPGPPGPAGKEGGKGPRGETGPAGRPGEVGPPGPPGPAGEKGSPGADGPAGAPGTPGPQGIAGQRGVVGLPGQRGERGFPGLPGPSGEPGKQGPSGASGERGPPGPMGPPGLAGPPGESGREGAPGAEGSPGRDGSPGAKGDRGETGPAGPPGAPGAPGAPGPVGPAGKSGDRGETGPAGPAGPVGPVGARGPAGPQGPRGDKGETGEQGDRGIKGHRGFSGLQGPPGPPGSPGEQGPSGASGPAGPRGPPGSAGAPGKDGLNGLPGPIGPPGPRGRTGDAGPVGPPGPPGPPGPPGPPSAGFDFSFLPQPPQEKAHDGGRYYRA
T1 sequence (P08123 80-1119 limits assumed, chain 2 of 2): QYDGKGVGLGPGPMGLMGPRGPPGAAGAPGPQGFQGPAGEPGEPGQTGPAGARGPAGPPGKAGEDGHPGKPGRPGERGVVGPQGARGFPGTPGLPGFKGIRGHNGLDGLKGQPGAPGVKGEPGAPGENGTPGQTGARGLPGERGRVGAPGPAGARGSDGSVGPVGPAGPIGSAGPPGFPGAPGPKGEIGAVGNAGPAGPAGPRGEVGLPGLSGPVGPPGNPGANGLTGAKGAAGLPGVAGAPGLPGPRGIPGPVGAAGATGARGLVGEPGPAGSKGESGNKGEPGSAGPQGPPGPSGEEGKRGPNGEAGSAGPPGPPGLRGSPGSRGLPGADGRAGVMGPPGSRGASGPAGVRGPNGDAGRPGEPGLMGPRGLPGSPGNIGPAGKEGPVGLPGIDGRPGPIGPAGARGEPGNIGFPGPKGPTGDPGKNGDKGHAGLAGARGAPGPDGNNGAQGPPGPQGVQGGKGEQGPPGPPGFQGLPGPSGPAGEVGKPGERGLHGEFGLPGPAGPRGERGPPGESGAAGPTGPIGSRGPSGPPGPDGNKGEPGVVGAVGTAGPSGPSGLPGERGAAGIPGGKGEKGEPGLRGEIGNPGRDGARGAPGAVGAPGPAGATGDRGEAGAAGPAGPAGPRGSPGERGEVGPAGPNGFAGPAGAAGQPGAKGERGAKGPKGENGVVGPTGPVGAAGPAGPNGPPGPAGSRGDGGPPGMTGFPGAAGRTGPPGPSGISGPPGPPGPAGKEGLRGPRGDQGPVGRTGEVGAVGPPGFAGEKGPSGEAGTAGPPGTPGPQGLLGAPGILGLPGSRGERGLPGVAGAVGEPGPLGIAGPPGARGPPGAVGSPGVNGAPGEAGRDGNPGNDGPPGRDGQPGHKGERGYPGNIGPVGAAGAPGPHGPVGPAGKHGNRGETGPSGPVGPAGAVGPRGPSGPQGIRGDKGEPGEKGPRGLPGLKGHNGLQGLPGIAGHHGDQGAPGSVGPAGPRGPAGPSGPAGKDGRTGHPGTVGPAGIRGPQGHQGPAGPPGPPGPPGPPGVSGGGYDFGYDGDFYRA
Test: dried collagen assay; note: test concentration or dose not given here
Bridge positions count the residues as written; N and C are the ends. Ends that are not written are not given here.
Reported values of % bound for individual entries
# unit: % | format: bare number

What value of measured % bound is listed for GQWTCSADEYTWHCNYE (disulfide 5-14 (inferred), cyclic, disulfide) [SEQ ID NO 142] ?
9

Record request: % bound value, item DWTCSGDEFTWHCNYE (disulfide 4-13 (inferred), cyclic, disulfide) [SEQ ID NO 119]
55

Please give the measured % bound for this binder: AWDCSGNIPTWYCRRL (disulfide 4-13 (inferred), cyclic, disulfide) [SEQ ID NO 23]
44

Value lookup for % bound; key = NWVCSGDHADWSCALI (disulfide 4-13 (inferred), cyclic, disulfide) [SEQ ID NO 32]
12

I have this binder here, FWTCMRDQVGEWHCGTE (disulfide 4-14 (inferred), cyclic, disulfide) [SEQ ID NO 88] , and I need its recorded % bound.
1

Entry GQWTCSGDEYTWHCNAE (disulfide 5-14 (inferred); not fully specified (C-terminus), cyclic, disulfide) [SEQ ID NO 150] : reported % bound = ?
16

Measured values drawn from patent US20080044360A1 for this set.
